- targetEntity: SNX27 PDZ (Homo sapiens, UniProt Q96L92)
- methodDescription: Holdup assay
- Assay type: binding
Ends that are not written are not given here.
experimentalEndpoint: Kd (µM)
Kindly answer with a numeric value in µM, unit omitted.

Prompt: // lookup Kd | system=SNX27 PDZ (Homo sapiens, UniProt Q96L92) | key= LDSQIQETSI [MAP4]
Completion: 1.86

Prompt: // lookup Kd | system=SNX27 PDZ (Homo sapiens, UniProt Q96L92) | key= DTKNYKQTSV [CRIPT]
Completion: 4.68

Prompt: // lookup Kd | system=SNX27 PDZ (Homo sapiens, UniProt Q96L92) | key= FHPLGADSQV [SLC2A1]
Completion: 89.1

Prompt: // lookup Kd | system=SNX27 PDZ (Homo sapiens, UniProt Q96L92) | key= EVVHTPETSV [SLC16A3]
Completion: 7.08

Prompt: // lookup Kd | system=SNX27 PDZ (Homo sapiens, UniProt Q96L92) | key= QSARYRDTEL [TJP2 (ZO2)]
Completion: 20.4

---

Please provide measured pKd for the entries that follow.
- targetEntity: SNX27 PDZ (Homo sapiens, UniProt Q96L92)
- methodDescription: Holdup assay
- Format: binding
- protocolConditions: holdup affinity of the PBM peptide of the named protein; sheet PBMcomplexome, lower sub-table
Ends that are not written are not given here.
Lab note — pKd values are minus log10 of concentrations in M.

Prompt: // lookup pKd | system=SNX27 PDZ (Homo sapiens, UniProt Q96L92) | key= QGLAERISVL [PRKD2]
Completion: 4.78

Prompt: // lookup pKd | system=SNX27 PDZ (Homo sapiens, UniProt Q96L92) | key= EKPIDSETKM [SLC1A3]
Completion: 5.18

Prompt: // lookup pKd | system=SNX27 PDZ (Homo sapiens, UniProt Q96L92) | key= DDENIRTSDV [PLEKHA2]
Completion: 4.84

Prompt: // lookup pKd | system=SNX27 PDZ (Homo sapiens, UniProt Q96L92) | key= TSQESEDTYL [TBC1D10A]
Completion: 5.27

---

Please provide measured Kd for the entries that follow.
- targetEntity: SCRIB2 PDZ (Homo sapiens, UniProt Q14160)
- Sequence (Q14160 862-950 limits assumed): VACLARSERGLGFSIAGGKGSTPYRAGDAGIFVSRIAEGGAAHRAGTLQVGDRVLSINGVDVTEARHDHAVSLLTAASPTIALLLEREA
- methodDescription: Holdup assay
- Type: binding
- protocolConditions: PBM motif of the named protein vs SCRIB_2 PDZ; read-out: pKd values – domain-motif, SCRIB_2 (converted)
Ends that are not written are not given here.
Kindly answer with a numeric value in µM, unit omitted.

Prompt: // lookup Kd | system=SCRIB2 PDZ (Homo sapiens, UniProt Q14160) | key= EVVHTPETSV [SLC16A3]
Completion: 33.1

Prompt: // lookup Kd | system=SCRIB2 PDZ (Homo sapiens, UniProt Q14160) | key= LDSQIQETSI [MAP4]
Completion: 35.5

Prompt: // lookup Kd | system=SCRIB2 PDZ (Homo sapiens, UniProt Q14160) | key= DTKNYKQTSV [CRIPT]
Completion: 24.5

Prompt: // lookup Kd | system=SCRIB2 PDZ (Homo sapiens, UniProt Q14160) | key= QSARYRDTEL [TJP2 (ZO2)]
Completion: 126

---

- targetEntity: DLG1_1 PDZ (Homo sapiens, UniProt Q12959)
- methodDescription: Holdup assay
- Format: binding
- protocolConditions: PBM motif of the named protein vs DLG1_1 PDZ; read-out: pKd values – domain-motif, DLG1_1 (converted)
Ends that are not written are not given here.
Please provide measured Kd for the entries that follow.
Respond with a number, then the unit of measure.

Prompt: // lookup Kd | system=DLG1_1 PDZ (Homo sapiens, UniProt Q12959) | key= EVVHTPETSV [SLC16A3]
Completion: 135 µM

Prompt: // lookup Kd | system=DLG1_1 PDZ (Homo sapiens, UniProt Q12959) | key= QSARYRDTEL [TJP2 (ZO2)]
Completion: 209 µM

Prompt: // lookup Kd | system=DLG1_1 PDZ (Homo sapiens, UniProt Q12959) | key= DTKNYKQTSV [CRIPT]
Completion: 44.7 µM

Prompt: // lookup Kd | system=DLG1_1 PDZ (Homo sapiens, UniProt Q12959) | key= LDSQIQETSI [MAP4]
Completion: 229 µM

---

- targetEntity: TX1BP3 PDZ (Homo sapiens)
- Sequence (O14907 15-112 limits assumed): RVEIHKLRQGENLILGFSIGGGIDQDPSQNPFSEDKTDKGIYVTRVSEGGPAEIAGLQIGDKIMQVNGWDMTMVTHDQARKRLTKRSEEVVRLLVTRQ
- methodDescription: Holdup assay
- Format: binding
- protocolConditions: PBM motif of the named protein vs TX1BP3 PDZ; read-out: pKd values – domain-motif, TX1BP3 (converted)
Ends that are not written are not given here.
# label = Satisfied if Kd < 100 µM else Not satisfied

Prompt: Please let me know if QSARYRDTEL [TJP2 (ZO2)] shows Kd below 100 µM.
Completion: Satisfied

Prompt: Please let me know if DTKNYKQTSV [CRIPT] shows Kd below 100 µM.
Completion: Satisfied

Prompt: Please let me know if FHPLGADSQV [SLC2A1] shows Kd below 100 µM.
Completion: Not satisfied

Prompt: Please let me know if EVVHTPETSV [SLC16A3] shows Kd below 100 µM.
Completion: Not satisfied

Prompt: Please let me know if LDSQIQETSI [MAP4] shows Kd below 100 µM.
Completion: Not satisfied

---

Please provide measured Kd for the entries that follow.
- targetEntity: DLG1_2 PDZ (Homo sapiens)
- methodDescription: Holdup assay
- Format: binding
- protocolConditions: PBM motif of the named protein vs DLG1_2 PDZ; read-out: pKd values – domain-motif, DLG1_2 (converted)
Ends that are not written are not given here.
Kindly answer with a numeric value in µM, unit omitted.

Prompt: Entry under review: QSARYRDTEL [TJP2 (ZO2)] . Reported Kd?
Completion: 170

Prompt: Entry under review: LDSQIQETSI [MAP4] . Reported Kd?
Completion: 42.7

Prompt: Entry under review: FHPLGADSQV [SLC2A1] . Reported Kd?
Completion: 132

Prompt: Entry under review: DTKNYKQTSV [CRIPT] . Reported Kd?
Completion: 8.51

Prompt: Entry under review: EVVHTPETSV [SLC16A3] . Reported Kd?
Completion: 50.1

---

- targetEntity: SYNJ2BP PDZ (Homo sapiens)
- Sequence (P57105 13-100 limits assumed): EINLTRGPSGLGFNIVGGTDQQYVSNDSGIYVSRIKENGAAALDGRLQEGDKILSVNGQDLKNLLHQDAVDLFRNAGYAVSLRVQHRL
- methodDescription: Holdup assay
- Format: binding
Ends that are not written are not given here.
experimentalEndpoint: Kd (µM)
Kindly answer with a numeric value in µM, unit omitted.

Prompt: // lookup Kd | system=SYNJ2BP PDZ (Homo sapiens) | key= PPRQRSETQV [HPV82E6]
Completion: 13.7
